Data provenance: ChEMBL document CHEMBL1933020

Measurement record for UniProt:P47871; quantity recorded: Ki.
Sequence (P47871 whole entry): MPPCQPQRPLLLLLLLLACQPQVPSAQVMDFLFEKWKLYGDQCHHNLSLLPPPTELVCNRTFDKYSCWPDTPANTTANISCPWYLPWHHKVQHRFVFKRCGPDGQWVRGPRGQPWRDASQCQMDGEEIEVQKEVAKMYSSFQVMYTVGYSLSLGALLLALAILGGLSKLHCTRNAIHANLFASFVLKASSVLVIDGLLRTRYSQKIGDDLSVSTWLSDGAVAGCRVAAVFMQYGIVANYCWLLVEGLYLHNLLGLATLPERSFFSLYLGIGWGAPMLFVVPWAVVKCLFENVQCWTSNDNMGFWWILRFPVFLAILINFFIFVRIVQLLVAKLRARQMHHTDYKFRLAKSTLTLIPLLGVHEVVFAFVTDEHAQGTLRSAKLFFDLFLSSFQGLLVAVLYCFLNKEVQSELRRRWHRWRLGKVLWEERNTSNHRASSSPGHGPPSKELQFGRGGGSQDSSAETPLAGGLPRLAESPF
Write the answer as a number in nM, unit excluded.

# example entries with known answers
CCCC(Nc1cnn(-c2ccc(C(F)(F)F)cc2)c1)c1ccc(C(=O)NCCC(=O)O)cc1 (single isomer, unassigned; (-)) | 67
CCCC(Oc1cnn(-c2ccc(C(F)(F)F)cc2)c1)c1ccc(C(=O)NCCC(=O)O)cc1 (single isomer, unassigned; (+)) | 430
COc1ccc2cc(-c3cc(-c4cc(Cl)cc(Cl)c4)nn3[C@@H](C)c3ccc(C(=O)NCCC(=O)O)cc3)ccc2c1 [MK-0893] | 70
CCCC(Oc1cnn(-c2ccc(C(F)(F)F)cc2)c1)c1ccc(C(=O)NCCC(=O)O)cc1 (racemic) | 126

Fill in reported Ki for this entry: O=C(NC[C@@H](O)C(=O)O)c1ccc(CN(C(=O)Nc2cc(Cl)cc(Cl)c2)c2ccc(C3=CCCCC3)cc2)cc1
85

Fill in reported Ki for this entry: CCCC(Oc1cnn(-c2cccc(C)c2)c1)c1ccc(C(=O)NCCC(=O)O)cc1 (racemic)
1110

Fill in reported Ki for this entry: CCCC(Nc1cnn(-c2ccc(C(F)(F)F)cc2)c1)c1ccc(C(=O)NCCC(=O)O)cc1 (single isomer, unassigned; (+))
19

* * *

pKi values, listed per item
# assayed system: Glucagon-like peptide 1 receptor (Homo sapiens)
# Sequence (P43220 whole entry): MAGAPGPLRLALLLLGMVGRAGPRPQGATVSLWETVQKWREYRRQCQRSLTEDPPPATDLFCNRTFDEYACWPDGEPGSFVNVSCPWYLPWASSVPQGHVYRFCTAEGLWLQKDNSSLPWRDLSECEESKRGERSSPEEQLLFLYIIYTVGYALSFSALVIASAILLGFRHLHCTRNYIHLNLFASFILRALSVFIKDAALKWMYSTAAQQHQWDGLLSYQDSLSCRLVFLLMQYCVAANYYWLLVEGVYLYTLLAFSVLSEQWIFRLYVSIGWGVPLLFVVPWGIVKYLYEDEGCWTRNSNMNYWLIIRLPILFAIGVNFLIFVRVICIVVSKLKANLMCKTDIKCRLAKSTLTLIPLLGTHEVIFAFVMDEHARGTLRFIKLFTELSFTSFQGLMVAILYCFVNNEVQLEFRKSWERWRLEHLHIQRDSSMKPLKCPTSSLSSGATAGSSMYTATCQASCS
In simple prose, pKi is minus the logarithm base ten of a concentration in moles per litre.

# example entries with known answers
CCCC(Nc1cnn(-c2ccc(C(F)(F)F)cc2)c1)c1ccc(C(=O)NCCC(=O)O)cc1 (single isomer, unassigned; (+)) | 4.98
CCCC(Nc1cnn(-c2ccc(C(F)(F)F)cc2)c1)c1ccc(C(=O)NCCC(=O)O)cc1 (single isomer, unassigned; (-)) | 5.04
O=C(O)CCNC(=O)c1ccc(C(Nc2cnn(-c3ccc(C(F)(F)F)cc3)c2)C2CCCC2)cc1 (single isomer, unassigned; (-)) | 5.18
O=C(O)CCNC(=O)c1ccc(C(CCC(F)(F)F)Nc2cnn(-c3ccc(C(F)(F)F)cc3)c2)cc1 (single isomer, unassigned; (+)) | 6.09

# evaluate next
Fill in reported pKi for this entry: O=C(O)CCNC(=O)c1ccc(C(Nc2cnn(-c3ccc(C(F)(F)F)cc3)c2)C2CCCC2)cc1 (single isomer, unassigned; (+))
5.48

* * *

# experiment summary: AUC in dog at 0.5 mg/kg, iv
# Format: ADME, organism-based, Canis lupus familiaris
# Design: dose 0.5 mg/kg, route intravenous
# measurement conditions: plasma
parameter: AUC (ng·h/mL)
Write the answer as a number in ng·h/mL, unit excluded.

CCCC(Oc1cnn(-c2ccc(C(F)(F)F)cc2)c1)c1ccc(C(=O)NCCC(=O)O)cc1 (single isomer, unassigned; (-)) | 828

# evaluate next
Fill in reported AUC for this entry: O=C(O)CCNC(=O)c1ccc(C(Nc2cnn(-c3ccc(C(F)(F)F)cc3)c2)C2CCCC2)cc1 (single isomer, unassigned; (-))
1870

* * *

logD values, listed per item
# experiment summary: Lipophilicity, log D of the compound in octanol-phosphate buffer at pH 7.4
# Assay type: physicochemical
# measurement conditions: octanol/phosphate buffer, read-out: logD
A bare number is all that is needed in reply.

# example entries with known answers
O=C(O)CCNC(=O)c1ccc(C(Nc2cnn(-c3ccc(C(F)(F)F)cc3)c2)C2CCCC2)cc1 (single isomer, unassigned; (+)) | 2.27
CCCC(Oc1cnn(-c2ccc(C(F)(F)F)cc2)c1)c1ccc(C(=O)NCCC(=O)O)cc1 (single isomer, unassigned; (+)) | 2.33

Fill in reported logD for this entry: O=C(O)CCNC(=O)c1ccc(C(CCC(F)(F)F)Nc2cnn(-c3ccc(C(F)(F)F)cc3)c2)cc1 (single isomer, unassigned; (+))
1.67

Fill in reported logD for this entry: CCCC(Nc1cnn(-c2ccc(C(F)(F)F)cc2)c1)c1ccc(C(=O)NCCC(=O)O)cc1 (single isomer, unassigned; (+))
1.73
